Values were extracted from patent US20070049538A1.

Experiment: Chromatographic hydrophobicity index (CHI) by RP-HPLC in buffered methanol
Format: physicochemical
Settings: buffered methanol pH 7.0, Econosil C18 150 mm, Eq. (4)
// boundary case: CHIMeOH equal to 70 maps to FALSE; strictly smaller maps to TRUE

| compound | classification |
| --- | --- |
| CC(C)(O)/C=C/C(=O)[C@](C)(O)[C@H]1[C@H](O)C[C@@]2(C)[C@@H]3CC=C4[C@@H](C=C(O)C(=O)C4(C)C)[C@]3(C)C(=O)C[C@]12C [I, cucurbitacin I] | TRUE |
| CCCOC1=CC2C(=CCC3C2(C)C(=O)CC2(C)C(C(C)(O)C(=O)C=CC(C)(C)O)C(O)CC32C)C(C)(C)C1=O (stereo not shown) [I-nPr] | FALSE |
| CC(=O)OC(C)(C)/C=C/C(=O)[C@](C)(O)[C@H]1[C@H](O)C[C@@]2(C)[C@@H]3CC=C4[C@@H](C=C(O[C@@H]5O[C@H](CO)[C@@H](O)[C@H](O)[C@H]5O)C(=O)C4(C)C)[C@]3(C)C(=O)C[C@]12C [E-Gluc, cucurbitacin E glucoside] | TRUE |
| CC(C)(O)/C=C/C(=O)[C@](C)(O)[C@H]1[C@H](O)C[C@@]2(C)[C@@H]3CC=C4[C@@H](C[C@H](O)C(=O)C4(C)C)[C@]3(C)C(=O)C[C@]12C [D, cucurbitacin D] | TRUE |
| CCOC1=CC2C(=CCC3C2(C)C(=O)CC2(C)C(C(C)(O)C(=O)C=CC(C)(C)OC(C)=O)C(O)CC32C)C(C)(C)C1=O (stereo not shown) [E-Et] | FALSE |
| CC(=O)OC(C)(C)/C=C/C(=O)[C@](C)(O)[C@H]1[C@H](O)C[C@@]2(C)[C@@H]3CC=C4[C@H](C[C@H](O)C(=O)C4(C)C)[C@]3(C)C(=O)C[C@]12C [B, cucurbitacin B] | TRUE |
| CCCOC1=CC2C(=CCC3C2(C)C(=O)CC2(C)C(C(C)(O)C(=O)C=CC(C)(C)OC(C)=O)C(O)CC32C)C(C)(C)C1=O (stereo not shown) [E-nPr] | FALSE |
| COC1=CC2C(=CCC3C2(C)C(=O)CC2(C)C(C(C)(O)C(=O)CCC(C)(C)O)C(O)CC32C)C(C)(C)C1=O [L-Me] | TRUE |
| CC(=O)OC(C)(C)C=CC(=O)C(C)(O)C1C(O)CC2(C)C3CC=C4C(C=C(OC(C)C)C(=O)C4(C)C)C3(C)C(=O)CC12C (stereo not shown) [E-iPr] | FALSE |

###

The compounds listed here are annotated with their pEC50.
Test system: HSC-T6 cells
Test: Serum-driven HSC-T6 proliferation, experiment 1 (4 h challenge, two days drug-free growth)
Format: cell-based, rat
Settings: HSC-T6, 4 h challenge, then two days drug-free media
pEC50: −log10 of the molar value.

| compound | pEC50 |
| --- | --- |
| CC(C)(O)/C=C/C(=O)[C@](C)(O)[C@H]1[C@H](O)C[C@@]2(C)[C@@H]3CC=C4[C@@H](C=C(O)C(=O)C4(C)C)[C@]3(C)C(=O)C[C@]12C | 6.44 |
| CC(C)OC1=CC2C(=CCC3C2(C)C(=O)CC2(C)C(C(C)(O)C(=O)C=CC(C)(C)O)C(O)CC32C)C(C)(C)C1=O (stereo not drawn) | 5.41 |
| CC(=O)OC(C)(C)C=CC(=O)C(C)(O)C1C(O)CC2(C)C3CC=C4C(C=C(OC(C)C)C(=O)C4(C)C)C3(C)C(=O)CC12C (stereo not drawn) | 5.67 |
| CCOC1=CC2C(=CCC3C2(C)C(=O)CC2(C)C(C(C)(O)C(=O)C=CC(C)(C)O)C(O)CC32C)C(C)(C)C1=O (stereo not drawn) | 5.10 |
| CC(C)(O)/C=C/C(=O)[C@](C)(O)[C@H]1[C@H](O)C[C@@]2(C)[C@@H]3CC=C4[C@@H](C[C@H](O)C(=O)C4(C)C)[C@]3(C)C(=O)C[C@]12C | 5.42 |
| COC1=CC2C(=CCC3C2(C)C(=O)CC2(C)C(C(C)(O)C(=O)C=CC(C)(C)O)C(O)CC32C)C(C)(C)C1=O (stereo not drawn) | 5.47 |

###

# IC50 annotations
System: HepG2 cells
Experiment: Cucurbitacins cytotoxicity on HepG2 cells (MTT viability assay)
Format: cell-based, human
Conditions: Table 4, 24 h incubation, MTT
measurementName: IC50 (µM)

| compound | assayTarget | readoutNumber |
| --- | --- | --- |
| CC(C)(O)/C=C/C(=O)C(C)(O)C1C(O)CC2(C)C3CC=C4C(CC(=O)C(O)C4(C)C)C3(C)C(=O)CC12C (stereo not drawn) | HepG2 cells | 80.3 |
| CC(C)(O)/C=C/C(=O)[C@](C)(O)C1[C@H](O)C[C@@]2(C)C3CC=C4C(C=C(O[C@@H]5O[C@H](CO)[C@@H](O)[C@H](O)[C@H]5O)C(=O)C4(C)C)[C@]3(C)C(=O)C[C@]12C (stereo partly drawn) [I-Gluc, cucurbitacin I glucoside] | HepG2 cells | 390 |
| CC(C)(O)/C=C/C(=O)[C@](C)(O)[C@H]1[C@H](O)C[C@@]2(C)[C@@H]3CC=C4[C@@H](C[C@H](O)C(=O)C4(C)C)[C@]3(C)C(=O)C[C@]12C | HepG2 cells | 77.3 |
| COC1=CC2C(=CCC3C2(C)C(=O)CC2(C)C(C(C)(O)C(=O)C=CC(C)(C)O)C(O)CC32C)C(C)(C)C1=O (stereo not drawn) | HepG2 cells | 15 |
| CC(=O)OC(C)(C)/C=C/C(=O)[C@](C)(O)[C@H]1[C@H](O)C[C@@]2(C)[C@@H]3CC=C4[C@H](C[C@H](O)C(=O)C4(C)C)[C@]3(C)C(=O)C[C@]12C | HepG2 cells | 27.7 |
| CC(C)(O)/C=C/C(=O)[C@](C)(O)[C@H]1[C@H](O)C[C@@]2(C)[C@@H]3CC=C4[C@@H](C=C(O)C(=O)C4(C)C)[C@]3(C)C(=O)C[C@]12C | HepG2 cells | 15.8 |

###

Assay: Chromatographic hydrophobicity index (CHI) by RP-HPLC in buffered methanol
Format: physicochemical
Settings: standard compounds; isochratic and gradient elution of standard mixture
Attribute: CHIMeOH (b)

| compound | CHIMeOH (b) |
| --- | --- |
| COc1cc2c(c(OC)c1OC)-c1ccc(OC)c(=O)cc1[C@@H](NC(C)=O)CC2 [Colchicine (26), colchicine, reference compound] | 57.56 + 0.04 |
| c1ccc2[nH]cnc2c1 [Benzimidazole (20), benzimidazole, reference compound] | 41.07 ± 0.04 |
| Cn1c(=O)c2[nH]cnc2n(C)c1=O [Theophylline (19), theophylline, reference compound] | 25.76 ± 0.05 |
| CC(=O)c1ccccc1 [Acetophenone (21), acetophenone, reference compound] | 52.47 ± 0.05 |
| CCCC(=O)c1ccccc1 [Butyrophenone (24), butyrophenone, reference compound] | 66.79 ± 0.05 |
| CCCCC(=O)c1ccccc1 [Valerophenone (25), valerophenone, reference compound] | 73.05 + 0.12 |
| Cn1c(=O)c2nc(-c3ccccc3)[nH]c2n(C)c1=O [Ph-theophylline (27), phenyltheophylline, reference compound] | 61.61 ± 0.04 |
| Brc1ccccc1 [Bromobenzene (29), bromobenzene, reference compound] | 69.43 + 0.07 |
| Nc1ccccc1 [Aniline (28), aniline, reference compound] | 29.94 ± 0.05 |
| CCC(=O)c1ccccc1 [Propiophenone (23), propiophenone, reference compound] | 60.41 + 0.04 |

###

Assay: Chromatographic hydrophobicity index (CHI) by RP-HPLC in buffered methanol
Type: physicochemical
Conditions: buffered methanol pH 7.0, Econosil C18 150 mm, Eq. (4)
Description: We used Dynamax liquid chromatograph (Varian Chromatography Systems) with PDA-2 photodiode array UV detector, controlled by the Dynamax PC Chromatography Data System (v. 1.9) software and Dynamax dual pump solvent delivery system, model SD-200. […] Compounds CHI was measured in both ACN, by using Alltima C18 column, and in MeOH, by using Econosil C18 column (Alltech; 150 mm×4.6 mm, 5 μm). […] Cucurbitacins lipophilicity was measured by RP-HPLC. […]
measurementName: CHIMeOH

| molecule | readoutNumber |
| --- | --- |
| COC1=CC2C(=CCC3C2(C)C(=O)CC2(C)C(C(C)(O)C(=O)C=CC(C)(C)O)C(O)CC32C)C(C)(C)C1=O (centres unmarked) [I-Me] | 66.58 |
| CC(C)(O)/C=C/C(=O)[C@](C)(O)C1[C@H](O)C[C@@]2(C)C3CC=C4C(C=C(O[C@@H]5O[C@H](CO)[C@@H](O)[C@H](O)[C@H]5O)C(=O)C4(C)C)[C@]3(C)C(=O)C[C@]12C (some centres unmarked) [I-Gluc, cucurbitacin I glucoside] | 56.41 |
| CCOC1=CC2C(=CCC3C2(C)C(=O)CC2(C)C(C(C)(O)C(=O)C=CC(C)(C)O)C(O)CC32C)C(C)(C)C1=O (centres unmarked) [I-Et] | 69.61 |
| CC(C)(O)/C=C/C(=O)C(C)(O)C1C(O)CC2(C)C3CC=C4C(CC(=O)C(O)C4(C)C)C3(C)C(=O)CC12C (centres unmarked) [iso-D] | 62.27 |
| CC(=O)OC(C)(C)/C=C/C(=O)[C@@](C)(O)[C@H]1[C@H](O)C[C@@]2(C)[C@@H]3CC=C4[C@@H](CC(=O)[C@@H](O)C4(C)C)[C@]3(C)C(=O)C[C@]12C [iso-B, iso-cucurbitacin B] | 68.50 |
